Measured values drawn from patent US10160738B2 for this set.

Answer each item with its documented Oocyte electrophysiology 0.1 μM.
target: rat α1β2γ2L type GABAA receptors expressed in Xenopus laevis oocytes (Rattus norvegicus, UniProt P18508+P62813+P63138, INS375LLRMFSFK); construct: expressed in transfected cells; host or cells: Xenopus laevis oocytes; test: Potentiation of GABA-mediated chloride currents, oocyte electrophysiology; format: cell-based; conditions: ratio of currents in presence/absence of 0.1 μM compound; 2 μM GABA; ± SEM, N≥4
Sequence (P62813 28-455, stated change not applied): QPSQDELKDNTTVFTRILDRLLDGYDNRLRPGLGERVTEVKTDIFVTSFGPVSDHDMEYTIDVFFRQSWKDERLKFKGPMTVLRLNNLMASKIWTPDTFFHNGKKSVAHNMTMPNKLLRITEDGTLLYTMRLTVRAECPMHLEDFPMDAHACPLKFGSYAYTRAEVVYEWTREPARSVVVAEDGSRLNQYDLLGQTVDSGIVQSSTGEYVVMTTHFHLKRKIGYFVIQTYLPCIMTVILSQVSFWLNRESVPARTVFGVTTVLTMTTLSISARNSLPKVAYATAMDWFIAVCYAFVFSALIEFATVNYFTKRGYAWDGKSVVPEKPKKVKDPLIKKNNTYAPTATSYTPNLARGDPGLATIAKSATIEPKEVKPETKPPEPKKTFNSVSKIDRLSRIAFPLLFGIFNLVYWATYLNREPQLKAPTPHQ
Sequence (P63138 26-474, stated change not applied): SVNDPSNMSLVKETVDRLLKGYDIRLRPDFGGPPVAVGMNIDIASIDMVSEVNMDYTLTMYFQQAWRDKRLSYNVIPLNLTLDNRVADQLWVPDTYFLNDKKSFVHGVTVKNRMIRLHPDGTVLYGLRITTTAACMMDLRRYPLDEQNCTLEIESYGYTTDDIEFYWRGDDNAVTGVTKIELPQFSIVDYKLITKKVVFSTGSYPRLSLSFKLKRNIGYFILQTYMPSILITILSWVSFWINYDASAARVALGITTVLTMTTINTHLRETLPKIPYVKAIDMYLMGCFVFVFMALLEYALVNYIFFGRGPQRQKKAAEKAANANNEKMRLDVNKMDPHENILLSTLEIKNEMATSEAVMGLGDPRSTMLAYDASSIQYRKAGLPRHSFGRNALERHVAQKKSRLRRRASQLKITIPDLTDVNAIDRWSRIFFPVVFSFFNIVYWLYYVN
Sequence (P18508 with tags, fused parts or gaps INS375LLRMFSFK): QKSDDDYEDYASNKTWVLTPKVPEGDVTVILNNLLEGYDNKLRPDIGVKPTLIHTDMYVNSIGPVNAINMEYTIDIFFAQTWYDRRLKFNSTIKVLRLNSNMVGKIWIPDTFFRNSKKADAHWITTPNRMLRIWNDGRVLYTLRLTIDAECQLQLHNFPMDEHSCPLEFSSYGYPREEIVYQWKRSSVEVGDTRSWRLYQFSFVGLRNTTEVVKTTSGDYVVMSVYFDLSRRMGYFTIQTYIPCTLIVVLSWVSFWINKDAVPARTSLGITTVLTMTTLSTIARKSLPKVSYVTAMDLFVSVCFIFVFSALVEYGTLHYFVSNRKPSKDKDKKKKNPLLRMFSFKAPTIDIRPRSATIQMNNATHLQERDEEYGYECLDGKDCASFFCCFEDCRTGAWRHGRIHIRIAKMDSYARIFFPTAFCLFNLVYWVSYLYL

Query: Item C[C@]12CC[C@@H]3C[C@@H]4C[C@@H](O)CC[C@H]4C[C@H]3[C@@H]1CCC2=O : provide Oocyte electrophysiology 0.1 μM
Reply: 0.80 ± 0.06

Query: Please report the measured Oocyte electrophysiology 0.1 μM for C[C@]12CC[C@@H]3C[C@@H]4C[C@@H](O)CC[C@H]4C[C@H]3[C@@H]1CC=C2C#N
Reply: 0.95 ± 0.20

Query: Provide Oocyte electrophysiology 0.1 μM value for the following compound: C[C@@]12CC[C@H]3C[C@H]4C[C@H](O)CC[C@@H]4C[C@@H]3[C@H]1CC(=O)C2
Reply: 0.80 ± 0.04

* * *

target: picrotoxin binding site on GABAA receptors; test: [35S]-TBPS displacement (inhibition of [35S]-TBPS binding); conditions: non-competitive displacement; duplicate experiments in triplicate; ± SEM
Exam item: assign Met to entries whose IC50 is below 400 nM and Not met to entries at or above 400 nM. Note that a value of exactly 400 nM receives Not met.

Query: Could you please tell me whether IC50 recorded for C[C@@]12CC[C@H]3C[C@H]4C[C@H](O)CC[C@@H]4C[C@@H]3[C@H]1CCC2=O is less than 400 nM?
Reply: Met

Query: Does the reported IC50 of the following molecule sit strictly below 400 nM? C[C@]12CC[C@@H]3C[C@@H]4C[C@@H](O)CC[C@H]4C[C@H]3[C@@H]1CC=C2C#N
Reply: Not met

Query: Hello, I'm reviewing records and need to know if IC50 of C[C@@]12CC[C@H]3C[C@H]4C[C@H](O)CC[C@@H]4C[C@@H]3[C@H]1CC=C2C#N is below 400 nM. Could you check?
Reply: Met

Query: Problem: For the molecule C[C@@]12CC[C@H]3C[C@H]4C[C@H](O)CC[C@@H]4C[C@@H]3[C@H]1CC[C@]21CO1 , is IC50 under 400 nM?
Reply: Met

Query: Field: below-cutoff. Rule: recorded IC50 strictly less than 400 nM. Subject: C[C@]12CC[C@@H]3C[C@@H]4C[C@@H](O)CC[C@H]4C[C@H]3[C@@H]1CC[C@@]21CO1
Reply: Met

Query: Does the reported IC50 of the following molecule sit strictly below 400 nM? C[C@]12CC[C@@H]3C[C@@H]4C[C@@H](O)CC[C@H]4C[C@H]3[C@@H]1CCC2=O
Reply: Not met

Query: Record C[C@@]12CC[C@H]3C[C@H]4C[C@H](O)CC[C@@H]4C[C@@H]3[C@H]1CC(=O)C2 : is its IC50 strictly below 400 nM?
Reply: Not met
